Every entry's value here was drawn from patent US20260242478A1.

Biological target: T1, Anti-CD28 Fab (SEQ ID NOs: 696, 697)
T1 construct: In the phage ELISA the Fab was biotinylated and captured on neutravidin coated plates
T1 sequence (VH, as listed by the source, chain 1 of 2): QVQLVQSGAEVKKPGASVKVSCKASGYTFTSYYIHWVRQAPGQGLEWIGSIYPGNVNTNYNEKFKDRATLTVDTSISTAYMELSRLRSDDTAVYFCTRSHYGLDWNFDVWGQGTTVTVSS
T1 sequence (VL, as listed by the source, chain 2 of 2): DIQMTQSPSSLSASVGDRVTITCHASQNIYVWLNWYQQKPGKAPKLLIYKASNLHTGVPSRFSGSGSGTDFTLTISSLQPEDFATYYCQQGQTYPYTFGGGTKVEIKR
Assay: phage ELISA on anti-CD28 Fab pre-incubated with CD28 antigen as competitor, anti-M13 HRP detection
Recorded measurements of Phage binding ELISA, Anti-CD28 Fab signal in the presence of CD28, one per entry
Provide a numeric answer; units are not to be included.

                                     binder  quantitativeresult
0  YCAGHAPQYMEKCL (Tested as clonal phage supernatant) [Phage-762]                0.08
1  YCDGHIDEYLQKCL (Tested as clonal phage supernatant) [Phage-772]                0.06
2  YCEGHLSEYMSKCL (Tested as clonal phage supernatant) [Phage-774]                0.09
3  YCDGHLPEYMGKCL (Tested as clonal phage supernatant) [Phage-766]                0.11

Query: So what does the record say about Phage binding ELISA, Anti-CD28 Fab signal in the presence of CD28 for YCEGHLQEYMEKCL (Tested as clonal phage supernatant) [Phage-767] ?
Reply: 0.1

Query: Moving on to the next binder: YCAGHLPQYIAKCL (Tested as clonal phage supernatant) [Phage-763]
Reply: 0.09

Query: Moving on to the next binder: YCDGHSPEYMPKCL (Tested as clonal phage supernatant) [Phage-769]
Reply: 0.08

Query: Moving on to the next binder: YCDGHLAEYMPKCL (Tested as clonal phage supernatant) [Phage-770]
Reply: 0.07

Query: Moving on to the next binder: YCEGHSPEYMWKCL (Tested as clonal phage supernatant) [Phage-771]
Reply: 0.09

Query: Moving on to the next binder: YCEGHIPEYMAKCL (Tested as clonal phage supernatant) [Phage-768]
Reply: 0.06

Query: Moving on to the next binder: YCDGHLKEYMAKCL (Tested as clonal phage supernatant) [Phage-764]
Reply: 0.07

Query: Moving on to the next binder: YCDGHRPEYMEKCL (Tested as clonal phage supernatant) [Phage-765]
Reply: 0.06

Query: Moving on to the next binder: YCEGHVAEYMLKCL (Tested as clonal phage supernatant) [Phage-773]
Reply: 0.05
